ASSAY SYSTEM: wt IDH1 (Homo sapiens, UniProt O75874)
Construct: made in house; host or cells: Escherichia coli BL21(DE3) pLyS
Sequence (O75874 2-414): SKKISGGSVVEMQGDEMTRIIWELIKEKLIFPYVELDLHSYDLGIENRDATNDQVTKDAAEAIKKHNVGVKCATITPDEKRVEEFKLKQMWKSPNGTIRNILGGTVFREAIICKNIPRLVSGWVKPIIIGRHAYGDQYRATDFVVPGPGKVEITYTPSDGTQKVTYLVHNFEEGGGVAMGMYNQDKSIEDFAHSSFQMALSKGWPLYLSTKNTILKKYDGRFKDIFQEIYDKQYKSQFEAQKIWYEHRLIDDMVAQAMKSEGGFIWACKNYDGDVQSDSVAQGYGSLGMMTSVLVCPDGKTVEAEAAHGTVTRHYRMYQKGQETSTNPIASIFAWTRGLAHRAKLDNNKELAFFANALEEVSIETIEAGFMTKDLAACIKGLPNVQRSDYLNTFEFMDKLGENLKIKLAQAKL
ASSAY COMMENT: Absorbance assay: effect of metal ions on catalysis and inhibition of wt IDH1
Format: biochemical
STATED CONDITIONS: wt IDH1, metal ions 10 mM in the presence of 10 mM Mg^2+
QUANTITY KIND: inhibition by metal ion

[Cl-].[Cl-].[Zn+2]
inhibitory
[Cl][Ni][Cl]
inhibitory
[Cl-].[Cl-].[Sr+2]
inhibiting
[Cl-].[Cs+]
no effect
[Cl][Cd][Cl]
inhibitory
[Ca+2].[Cl-].[Cl-]
inhibiting
[Cl-].[Cl-].[Co+2]
inhibitory
[Na+]
no effect
[Ba+2].[Cl-].[Cl-]
inhibiting
[Cl-].[Li+]
no effect
[Cl-].[K+]
no effect
